Recorded Ki for compounds tested on Beta-secretase 1 (Homo sapiens, UniProt P56817), drawn from a number of studies.
measured quantity: Ki (nM)

Please review the following examples before continuing.
compound: NC1=N[C@](CF)(c2cc(NC(=O)c3ccc(F)cn3)ccc2F)C(F)(F)CC1
target under test: Beta-secretase 1 (Homo sapiens, UniProt P56817)
measured quantity: Ki
unit tag: nM
recorded value: 22
//
compound: CO[C@@H](C)C(=O)Nc1ccc(F)c([C@]2(C)CN(C)S(=O)(=O)C(C)(C)C(=N)N2)c1
target under test: Beta-secretase 1 (Homo sapiens, UniProt P56817)
measured quantity: Ki
unit tag: nM
recorded value: 3060
//
compound: CN1C(=N)N[C@](C)(c2sc3c(-c4ccc(-c5cnco5)cc4F)nccc3c2Cl)CS1(=O)=O
target under test: Beta-secretase 1 (Homo sapiens, UniProt P56817)
measured quantity: Ki
unit tag: nM
recorded value: 35.2

A: C[C@@]1(S(C)(=O)=O)CC[C@@](CF)(c2cc(NC(=O)c3cc4c(cn3)OC(F)(F)CO4)ccc2F)N=C1N
B: CN1C(=N)N[C@]2(C)c3cc(NC(=O)c4ccc(F)cn4)ccc3CCC[C@H]2S1(=O)=O
C: Cc1nsc(C2CCN(c3nccc4c(Cl)c([C@]5(C)CS(=O)(=O)N(C)C(=N)N5)sc34)CC2)n1
// smallest Ki at index 0, largest at the end Hello, could you send the labels back in the order asked? Thank you.
A, B, C

A: CN1C(=N)N[C@](C)(c2sc(-c3ccnc(-c4cncnc4)c3)cc2F)CS1(=O)=O
B: C[C@@]1(c2cc(-c3cccc(-c4nnco4)c3)cs2)Cc2nc(C(F)(F)F)ncc2C(=N)N1
C: Cc1noc(-c2cc(-c3cc(Cl)c([C@]4(C)CS(=O)(=O)N(C)C(=N)N4)s3)ccn2)n1
D: CN1C(=N)N[C@](C)(c2sc(-c3cccc(N4CCS(=O)(=O)CC4)c3)cc2Cl)CS1(=O)=O
Arrange these compounds by their Ki, starting with the largest number. Hello, could you send the labels back in the order asked? Thank you.
A, D, B, C
(A: 1250 nM, D: 693 nM, B: 49.6 nM, C: 18.7 nM)
